Test system: A549 NSCLC
TEST_PROTOCOL: NCI tumour cell line growth inhibition, 48 h
Kindly state TGI for each of the entries shown.

C=C1C[C@@H]2[C@H](CC[C@]3(C)C(=O)CC[C@@H]23)[C@@]2(C)C=CC(=O)C=C12 = > 51.8 µM

Would you be so kind as to report TGI for each listed record?
1. C#CCOc1cccc(Nc2ncc3ncn(C4CCN(C(=O)CCl)C4)c3n2)c1 (centres undefined)
2. CCOC(=O)C1=C(C)N(c2ccc(C)cc2)C2(O)C=CC(=O)C3=C(O)c4ccccc4C(=O)C312 (centres undefined)
3. CC(C)(O)CCC(O)C(C)(O)C1CCC2(O)C3=CC(=O)C4(O)CC(O)C(O)CC4(C)C3CCC12C (centres undefined) (tested in a mixture with another compound)

Reply:
1. > 62.5 µM
2. > 100 µM
3. > 100 µM
